FYI, the data here is from patent US20130190217A1.

experiment: Kinematic viscosity; format: physicochemical; conditions: Table 2, 100° C.
outcome-measure: η100° C. (mm^2/s)

Guide cases for η100° C., answers given:
compound	η100° C. [mm^2/s]
CCCCCCCCCCCCCOC(=O)CCCCCCCC(=O)OCCCCCCCCCCCCC [Ditridecyl azelate]	6.4
CC(C)CCCCCCCOC(=O)CCCCC(=O)OCCCCCCCC(C)C [Diisodecyl adipate]	3.10

I = CC(C)CCCCCCCOC(=O)CCCCCCCC(=O)OCCCCCCCC(C)C [Diisodecyl azelate]
II = CC(C)CCCCCCCCCCOC(=O)CCCCCCCCCCC(=O)OCCCCCCCCCCC(C)C [C12D13, di(isotridecyl)dodecanedioate]
Could you check which of I and II has a smaller value for η100° C.? Select an item and report its label.
I
